target: hSMOX (Homo sapiens); construct: 6xHis (N); TEV cleavage site (N); experiment: Progress curve analysis of hSMOX inhibition (on rate, mode of inhibition); conditions: read-out: apparent Ki (Ki app) of the initial E·I complex
Sequence (Q9NWM0 whole entry): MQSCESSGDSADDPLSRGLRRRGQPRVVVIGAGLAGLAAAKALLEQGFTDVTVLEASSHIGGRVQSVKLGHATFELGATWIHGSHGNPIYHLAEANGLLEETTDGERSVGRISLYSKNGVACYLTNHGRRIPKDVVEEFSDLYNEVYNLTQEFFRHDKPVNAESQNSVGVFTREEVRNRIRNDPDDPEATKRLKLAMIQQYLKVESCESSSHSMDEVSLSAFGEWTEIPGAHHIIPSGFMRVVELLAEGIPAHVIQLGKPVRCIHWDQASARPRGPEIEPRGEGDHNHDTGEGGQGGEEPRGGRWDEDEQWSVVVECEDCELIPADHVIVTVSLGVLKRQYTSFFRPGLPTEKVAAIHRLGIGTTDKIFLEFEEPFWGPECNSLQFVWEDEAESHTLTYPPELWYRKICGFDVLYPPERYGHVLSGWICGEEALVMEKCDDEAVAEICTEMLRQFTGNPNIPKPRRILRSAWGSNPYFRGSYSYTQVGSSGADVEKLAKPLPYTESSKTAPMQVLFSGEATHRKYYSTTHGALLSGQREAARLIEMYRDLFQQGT
reported.metric: Ki (nM)
Response body: numeric value in nM, unit text excluded.

Quickly give me recorded Ki for Oc1ccc(Nc2nc(-c3cnc4ccccn34)cs2)cc1
1400

###

biological target: hSMOX (Homo sapiens); construct: 6xHis (N); TEV cleavage site (N); made in house; host or cells: E. coli BL21(D3), plasmid PET28b(+); assay: hSMOX HyPerBlu chemiluminescent enzyme activity assay (H2O2 detection, Spm substrate); type: biochemical; settings: 2.5 nM hSMOX, 30 µM Spm, 1 h reaction, HTS assay conditions; read-out: IC50 hSMOX
# pIC50 values compiled below
// field semantics: pIC50 = negative decimal log of concentration (mol/L)

[H]/N=C(\N/C(=N/[H])NCCCCCCNC(=N)NC(=N)Nc1ccc(Cl)cc1)Nc1ccc(Cl)cc1 [chlorhexidine, reference compound]    5.72

Attention now turns to another entry.
Let me know recorded pIC50 for Oc1ccc(Nc2nc(-c3cnc4ccccn34)cs2)cc1 , thanks.
7.30
